experiment: S. cerevisiae growth inhibition in permissive medium (OD615), pilot counter-assay for S. cerevisiae lifespan shortening project, permissive growth control (AID 705); conditions: OD615, 24 h, at 10 µM, stronger effect = higher value
growth inhibition reference
Numbers only; they are read as %.

Take a look at these entries with their results.
compound	unitSpec	growth inhibition
O=C(CC1NC(=O)NC1=O)NC1(C(=O)NC2CCCCC2)CCCCC1 (stereo unspecified)	%	-9.09
Cc1cccc(NC(=O)c2ccc(S(=O)(=O)N(C)C)cc2)c1	%	-8.26
Cc1nc2ccc(S(=O)(=O)NC(C(=O)NCc3cccs3)C(C)C)cc2s1 (stereo unspecified)	%	-3.81

Requested read-out: growth inhibition. Entry: CCN1CCN(C(c2cccs2)C(C)NC(=O)c2cccc(OC)c2)CC1 (stereo unspecified)
-2.49

Requested read-out: growth inhibition. Entry: COc1ccc(N2C(=O)CC(c3ccc(OC(C)C)cc3)C2=O)cc1 (stereo unspecified)
-5.08

Requested read-out: growth inhibition. Entry: `Cc1ccc2nc(-c3ccccc3)cc(C(=O)O)c2c1`
-9.89
